target.or.test.system: HLA-A*02:06
measurement.notes: IEDB peptide-MHC binding, purified MHC/competitive/radioactivity; bounds were set here for any values at or beyond the usual limits of such assays
condition.parameters: source organism: Vaccinia virus WR
// class assignment uses IC50 with these ranges: c1 (below 60 nM), c2 (60 nM to below 700 nM), c3 (700 nM or more)

Class (by measured IC50) for "KADAVVADL" c3

Assign a bin to "CTIVDSMII" c3

Assign a bin to "NASKTINALV" c3

Where would "VIIMAINVFT" land among the classes by reported IC50? c2

Kindly state the category for this sequence: "SLVSKHWEL" c1

Which bin, given its IC50, does "CTINVNSLAL" occupy? c2

Which class holds "IMFMLIFNV" ? c1

Kindly identify the class of "IVDSMIIGHI" . c2

Lab note: sort "STVDVRNIVT" into the matching IC50 band. c3

State the band of "IAVSVYGAI" c3

Hello team, could you let me know which band the following sequence falls into: "FLFWFLKSGA" c1

Which class does "IMSMMNITRL" fall in? c2

GET /class?item= "KTNTKHCPKI" c2

The entry to classify is "SISEINEWL" ; which class holds it? c1

Which of the defined bands does the recorded IC50 of "IVTFINDYA" sit within? c3

Lab note: sort "LLWFLTGTFV" into the matching IC50 band. c1

# bin lookup: classify "RIYCSLFKNV" by its IC50 c1

Sort into band: "MMNERDVSV" c2

Band of "TAYIGTSNWT" ? c2

Class label required: "TTIGTIAGGV" c2
